# Organism: Rattus norvegicus
# test-description: Open TG-GATES - Regimen: Daily Repeat
# Format: toxicity, organism-based, Sprague-Dawley
# Parameters: regimen Daily Repeat, gender Male, age 6 weeks
# recorded-conditions: in vivo, po, 0 mg/kg, […], tissue Plasma, route gavage, dose level Control, time 7 day
observable: DBIL

Recorded DBIL, per entry:
CC(=O)Nc1nnc(S(N)(=O)=O)s1 [ACETAZOLAMIDE]    0 mg/dL
C1CCC(C(CC2CCCCN2)C2CCCCC2)CC1 (centres undefined)    0.002 mg/dL
CCOC(=O)[C@H](CCc1ccccc1)N[C@@H](C)C(=O)N1CCC[C@H]1C(=O)O    0.002 mg/dL
Clc1c(Cl)c(Cl)c(Cl)c(Cl)c1Cl    0.024 mg/dL
CN1C(C(=O)Nc2ccccn2)=C(O)c2sc(Cl)cc2S1(=O)=O    0.1 mg/dL
CN(C)[C@@H]1C(O)=C(C(N)=O)C(=O)[C@@]2(O)C(O)=C3C(=O)c4c(O)cccc4[C@@](C)(O)[C@H]3C[C@@H]12    0.006 mg/dL
C#C[C@]1(O)CC[C@H]2[C@@H]3CCC4=Cc5oncc5C[C@]4(C)[C@H]3CC[C@@]21C    0 mg/dL
Cc1cccc(Nc2ccccc2C(=O)O)c1C    0.07 mg/dL

Attention now shifts to the item below.
Please give the measured DBIL for this compound: CC(CN1c2ccccc2Sc2ccccc21)N(C)C (centres undefined)
0 mg/dL

* * *

# Organism: Rattus norvegicus
# test-description: Open TG-GATES - Regimen: Single
# Type: toxicity, organism-based, Sprague-Dawley
# Parameters: regimen Single, gender Male, age 6 weeks
# recorded-conditions: in vivo, po, 0 mg/kg, 6 h, tissue Blood, route gavage, dose level Control
In this section we review reported Ht values for a set of compounds.
Field format: number, assumed %, no unit text.

CN(C)[C@@H]1C(O)=C(C(N)=O)C(=O)[C@@]2(O)C(O)=C3C(=O)c4c(O)cccc4[C@@](C)(O)[C@H]3C[C@@H]12    39.1
Clc1c(Cl)c(Cl)c(Cl)c(Cl)c1Cl    38.4
CN1C(C(=O)Nc2ccccn2)=C(O)c2sc(Cl)cc2S1(=O)=O    39.3
CC(=O)Nc1nnc(S(N)(=O)=O)s1 [ACETAZOLAMIDE]    39.1
CCOC(=O)[C@H](CCc1ccccc1)N[C@@H](C)C(=O)N1CCC[C@H]1C(=O)O    39.9
Cc1cccc(Nc2ccccc2C(=O)O)c1C    37.2

// lookup Ht for CC(CN1c2ccccc2Sc2ccccc21)N(C)C (stereo not given)
39.9

Give the measured Ht of COc1cc([C@@H]2c3cc4c(cc3[C@@H](O[C@@H]3O[C@@H]5CO[C@@H](C)O[C@H]5[C@H](O)[C@H]3O)[C@H]3COC(=O)[C@H]23)OCO4)cc(OC)c1O [ETOPOSIDE] .
39.7

Give its Ht value. Item: C1CCC(C(CC2CCCCN2)C2CCCCC2)CC1 (stereo not given)
39.3

What does the record list as Ht for C#C[C@]1(O)CC[C@H]2[C@@H]3CCC4=Cc5oncc5C[C@]4(C)[C@H]3CC[C@@]21C ?
39.8

* * *

# Organism: Rattus norvegicus
# test-description: Open TG-GATES - Regimen: Single
# Format: toxicity, organism-based, Sprague-Dawley
# Design: regimen Single, gender Male, age 6 weeks
# recorded-conditions: in vivo, po, 0 mg/kg, 9 h, tissue Kidney, route gavage, dose level Control
# Lookup of reported KIDNEY_R keyed by entry
Answer with a number only, understood to be in g.

C1CCC(C(CC2CCCCN2)C2CCCCC2)CC1 (stereo not given)    1

Could you share which KIDNEY_R value was measured for C#C[C@]1(O)CC[C@H]2[C@@H]3CCC4=Cc5oncc5C[C@]4(C)[C@H]3CC[C@@]21C ?
1

Please give the measured KIDNEY_R for this compound: COc1cc([C@@H]2c3cc4c(cc3[C@@H](O[C@@H]3O[C@@H]5CO[C@@H](C)O[C@H]5[C@H](O)[C@H]3O)[C@H]3COC(=O)[C@H]23)OCO4)cc(OC)c1O [ETOPOSIDE]
0.9

Which KIDNEY_R value is on record for CN(C)[C@@H]1C(O)=C(C(N)=O)C(=O)[C@@]2(O)C(O)=C3C(=O)c4c(O)cccc4[C@@](C)(O)[C@H]3C[C@@H]12 ?
0.9

Which KIDNEY_R is listed for CN1C(C(=O)Nc2ccccn2)=C(O)c2sc(Cl)cc2S1(=O)=O ?
1

Which measured KIDNEY_R value corresponds to CC(=O)Nc1nnc(S(N)(=O)=O)s1 [ACETAZOLAMIDE] ?
1

Which KIDNEY_R reading was recorded for the compound Clc1c(Cl)c(Cl)c(Cl)c(Cl)c1Cl ?
0.9

Entry CCOC(=O)[C@H](CCc1ccccc1)N[C@@H](C)C(=O)N1CCC[C@H]1C(=O)O has what KIDNEY_R?
1

I have this compound here, CC(CN1c2ccccc2Sc2ccccc21)N(C)C (stereo not given) , and I need its recorded KIDNEY_R.
1

Return reported KIDNEY_R; argument: Cc1cccc(Nc2ccccc2C(=O)O)c1C
1

These data points were gathered from ChEMBL document CHEMBL3885861.
